Attribution: patent US11008317B2

target.under.test: myeloperoxidase (Homo sapiens)
Sequence (P05164 49-745): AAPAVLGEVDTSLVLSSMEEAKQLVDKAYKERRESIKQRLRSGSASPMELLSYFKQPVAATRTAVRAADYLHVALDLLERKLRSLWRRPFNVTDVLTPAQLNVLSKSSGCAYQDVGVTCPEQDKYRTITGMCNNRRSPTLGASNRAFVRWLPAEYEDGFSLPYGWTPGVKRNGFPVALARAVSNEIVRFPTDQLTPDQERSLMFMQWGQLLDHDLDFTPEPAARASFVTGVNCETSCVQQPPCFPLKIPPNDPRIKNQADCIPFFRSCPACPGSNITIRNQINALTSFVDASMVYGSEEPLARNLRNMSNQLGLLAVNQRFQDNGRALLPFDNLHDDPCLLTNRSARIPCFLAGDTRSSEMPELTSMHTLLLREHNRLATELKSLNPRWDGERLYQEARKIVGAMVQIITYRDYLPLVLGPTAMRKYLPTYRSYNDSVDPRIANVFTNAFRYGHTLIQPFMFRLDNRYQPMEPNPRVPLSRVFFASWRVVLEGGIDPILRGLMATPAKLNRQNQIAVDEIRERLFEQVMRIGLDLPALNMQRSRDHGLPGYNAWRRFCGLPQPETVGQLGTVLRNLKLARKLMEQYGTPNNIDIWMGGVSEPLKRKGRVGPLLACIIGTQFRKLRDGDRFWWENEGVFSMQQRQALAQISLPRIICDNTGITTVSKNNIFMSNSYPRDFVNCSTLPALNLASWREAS
experimental.details: MPO Peroxidation Assay (Amplex Red Assay)
Type: biochemical
study.conditions: potency range class, read-out: Amplex Red Assay IC50 value

compound	target.under.test	IC50
Nc1cc(C(CCNCCc2ccccc2)c2ccccc2)c2nn[nH]c2n1 (stereo not drawn) [Example 109]	myeloperoxidase (Homo sapiens)	101 to 999 nM
Nc1cc(C(CCN[C@@H]2C[C@@H](c3ccccc3)Cc3ccccc32)c2ccccc2)c2nn[nH]c2n1 (stereo partly drawn) [Example 84]	myeloperoxidase (Homo sapiens)	1000 to 10000 nM
Nc1cc(C(CCN[C@@H](CO)CCCc2ccccc2)c2ccccc2)c2nn[nH]c2n1 (stereo partly drawn) [Example 236]	myeloperoxidase (Homo sapiens)	1000 to 10000 nM
Nc1cc(C(CCNC2c3ccccc3CC2c2ccccc2)c2ccccc2)c2nn[nH]c2n1 (stereo not drawn) [Example 56]	myeloperoxidase (Homo sapiens)	101 to 999 nM
CC1(NCCC(c2ccccc2)c2cc(N)nc3[nH]nnc23)CCc2ccccc21 (stereo not drawn) [Example 110]	myeloperoxidase (Homo sapiens)	101 to 999 nM
Nc1cc(C(CCCN[C@H]2CC[C@H](c3ccccc3)CC2)c2ccccc2)c2nn[nH]c2n1 (stereo partly drawn) [Example 208]	myeloperoxidase (Homo sapiens)	1000 to 10000 nM
Nc1cc([C@H](Cc2nc3ccc(-c4ccccc4)cc3s2)c2ccccc2)c2nn[nH]c2n1 [Example 242]	myeloperoxidase (Homo sapiens)	1 to 100 nM
Nc1cc(C(Cc2cccc(O)c2)c2ccccc2)c2nn[nH]c2n1 (stereo not drawn) [Example 230]	myeloperoxidase (Homo sapiens)	1 to 100 nM
CC1C[C@H](NCCC(c2ccccc2)c2cc(N)nc3[nH]nnc23)c2ccccc21 (stereo partly drawn) [Example 95]	myeloperoxidase (Homo sapiens)	101 to 999 nM
Nc1cc([C@H](Cc2nc3cc(F)c(-c4ccccc4)cc3[nH]2)c2ccccc2)c2nn[nH]c2n1 [Example 259]	myeloperoxidase (Homo sapiens)	101 to 999 nM
Nc1cc(C(CCNC2c3ccccc3CC2c2ccccc2)c2ccccc2)c2nn[nH]c2n1 (stereo not drawn) [Example 55]	myeloperoxidase (Homo sapiens)	1000 to 10000 nM
Nc1cc(C(CCNC2Cc3ccccc3C2)c2ccccc2)c2nn[nH]c2n1 (stereo not drawn) [Example 41]	myeloperoxidase (Homo sapiens)	101 to 999 nM
Nc1cc(C(CCC(N)Cc2ccccc2)c2ccccc2)c2nn[nH]c2n1 (stereo not drawn) [Example 235]	myeloperoxidase (Homo sapiens)	101 to 999 nM
Nc1cc([C@H](Cc2nc3ccccc3[nH]2)c2ccccc2)c2nn[nH]c2n1 [Example 261]	myeloperoxidase (Homo sapiens)	101 to 999 nM
CC(C)(C)CNCCC(c1ccccc1)c1cc(N)nc2[nH]nnc12 (stereo not drawn) [Example 20]	myeloperoxidase (Homo sapiens)	101 to 999 nM
Nc1cc([C@H](Cc2nc3ccccc3o2)c2ccccc2)c2nn[nH]c2n1 [Example 240]	myeloperoxidase (Homo sapiens)	101 to 999 nM
CC(C)CC(c1ccccc1)c1cc(N)nc2[nH]nnc12 (stereo not drawn) [Example 4]	myeloperoxidase (Homo sapiens)	101 to 999 nM
Nc1cc([C@H](CCNC2CC[C@H](c3ccccc3)[C@@H](O)C2)c2ccccc2)c2nn[nH]c2n1 (stereo partly drawn) [Example 183]	myeloperoxidase (Homo sapiens)	1000 to 10000 nM

---

target.under.test: myeloperoxidase (Homo sapiens)
experimental.details: MPO Chlorination Assay (APF Assay)
Type: biochemical
study.conditions: potency range class, read-out: APF Assay IC50 value
pIC50: −log10 of the molar value. Where a name gives a salt, the structure may show the parent alone.

molecule	pIC50
Nc1cc(C(CCN[C@H]2CC[C@H](c3ccccc3)CC2)c2cccc(OC(F)F)c2)c2nn[nH]c2n1 (stereo partly shown)	7.00 to 9.00
Nc1cc(C(CCNC2CCCc3ccccc32)c2ccccc2)c2nn[nH]c2n1 (stereo not shown) [Example 29]	7.00 to 9.00
Nc1cc(C(CCNC2CCCc3ccccc32)c2ccccc2)c2nn[nH]c2n1 (stereo not shown) [Example 28]	7.00 to 9.00
Nc1cc([C@H](CCN(CC2CCO2)C23CCC(c4ccccc4)(CC2)CC3)c2ccccc2)c2nn[nH]c2n1 (stereo partly shown)	7.00 to 9.00
Nc1cc(C(CCNC2(C(F)(F)F)CCC(c3ccccc3)CC2)c2ccccc2)c2nn[nH]c2n1 (stereo not shown)	5.00 to 6.00
Nc1cc([C@H](Cc2nc3ccc(-c4ccccc4)cc3[nH]2)c2ccccc2)c2nn[nH]c2n1	6.00 to 7.00
CC1CC2(NCCC(c3ccccc3)c3cc(N)nc4[nH]nnc34)CCC1(c1ccccc1)CC2 (stereo not shown)	7.00 to 9.00
Nc1cc([C@H](Cc2nc3c(-c4ccccc4)cc(C(F)(F)F)cc3[nH]2)c2ccccc2)c2nn[nH]c2n1	7.00 to 9.00
COc1cccc(C(CCN[C@H]2CC[C@H](c3ccccc3)CC2)c2cc(N)nc3[nH]nnc23)c1 (stereo partly shown)	7.00 to 9.00
Nc1cc(C(CCN[C@H]2CC[C@H](c3ccccc3)CC2)c2ccccc2F)c2nn[nH]c2n1 (stereo partly shown)	7.00 to 9.00
NC(=O)c1ccc(-c2cccc3[nH]c(C[C@H](c4ccccc4)c4cc(N)nc5[nH]nnc45)nc23)cc1	7.00 to 9.00
Nc1cc(C(CCCN2CCC(Cc3ccccc3)CC2)c2ccccc2)c2nn[nH]c2n1 (stereo not shown)	6.00 to 7.00
Nc1cc([C@H](Cc2nc3c(-c4ccccc4)cc(Cl)cc3[nH]2)c2ccccc2)c2nn[nH]c2n1	7.00 to 9.00
Nc1cc(C(CCCN2CCCC(c3ccccc3)CC2)c2ccccc2)c2nn[nH]c2n1 (stereo not shown)	7.00 to 9.00
Nc1cc(C(CCNCc2cccc(C(F)(F)F)c2)c2ccccc2)c2nn[nH]c2n1 (stereo not shown)	6.00 to 7.00
Nc1cc(C(CCNCc2ccccc2Cc2ccccc2)c2ccccc2)c2nn[nH]c2n1 (stereo not shown)	7.00 to 9.00
Nc1cc([C@H](Cc2nc3ccc(-c4ccccc4)cc3s2)c2ccccc2)c2nn[nH]c2n1	7.00 to 9.00
Nc1cc(C(CCNC(Cc2ccccc2)c2ccccc2)c2ccccc2)c2nn[nH]c2n1 (stereo not shown) [Example 48]	7.00 to 9.00
Nc1cc([C@H](CCCN2CCC(c3ccc4ccccc4c3)CC2)c2ccccc2)c2nn[nH]c2n1	7.00 to 9.00
Nc1cc(C(CCN[C@@H]2CCc3c(Cl)cc(Cl)cc32)c2ccccc2)c2nn[nH]c2n1 (stereo partly shown)	6.00 to 7.00
Nc1cc(C(CCNS(=O)(=O)c2ccccc2)c2ccccc2)c2nn[nH]c2n1 (stereo not shown) [Example 15, TFA]	6.00 to 7.00
CN(CC[C@H](c1ccccc1)c1cc(N)nc2[nH]nnc12)[C@H]1CC[C@H](c2ccccc2)CC1 (stereo in doubt)	7.00 to 9.00
CN(C)C(=O)c1cccc(-c2cccc3[nH]c(C[C@H](c4ccccc4)c4cc(N)nc5[nH]nnc45)nc23)c1	7.00 to 9.00
Nc1cc(C(CCNC2(c3ccccc3)CCC(c3ccccc3)CC2)c2ccccc2)c2nn[nH]c2n1 (stereo not shown)	6.00 to 7.00
NC(=O)c1ccc(C2CCC(NCCC(c3ccccc3)c3cc(N)nc4[nH]nnc34)CC2)cc1 (stereo not shown) [Example 117]	7.00 to 9.00
